Hello, the source for this data is ChEMBL document CHEMBL1157528, in case you need it.

Experiment: Cytotoxicity against human NCI60 cells
Format: functional

{"columns": ["Sample smiles", "TGI, µM"],
 "data": [
  ["CC(=O)O[C@H]1C[C@H]2[C@@H]([C@H](OC(C)=O)C[C@@H]3CC4(CC[C@@]32C)OOC(C)(C)OO4)[C@@H]2CC[C@H]([C@H](C)CCC(=O)N(C)C)[C@@]12C", 41.7],
  ["CC(=O)O[C@H]1C[C@H]2[C@@H]([C@H](OC(C)=O)C[C@@H]3CC4(CC[C@@]32C)OOC(C)(C)OO4)[C@@H]2CC[C@H]([C@H](C)CCC(N)=O)[C@@]12C", 34.7],
  ["C[C@H](CCC(N)=O)[C@H]1CC[C@H]2[C@@H]3[C@H](O)C[C@@H]4CC5(CC[C@]4(C)[C@H]3C[C@H](O)[C@]12C)OOC(C)(C)OO5", 3.8],
  ["COC(=O)CNC(=O)CC[C@@H](C)[C@H]1CC[C@H]2[C@@H]3[C@H](OC(C)=O)C[C@@H]4CC5(CC[C@]4(C)[C@H]3C[C@H](OC(C)=O)[C@]12C)OOC(C)(C)OO5", 33.9],
  ["CC(=O)O[C@H]1C[C@H]2[C@@H]([C@H](OC(C)=O)C[C@@H]3CC4(CC[C@@]32C)OOC(C)(C)OO4)[C@@H]2CC[C@H]([C@H](C)CCC(=O)O)[C@@]12C", 37.1],
  ["CNC(=O)CC[C@@H](C)[C@H]1CC[C@H]2[C@@H]3[C@H](OC(C)=O)C[C@@H]4CC5(CC[C@]4(C)[C@H]3C[C@H](OC(C)=O)[C@]12C)OOC(C)(C)OO5", 18.2],
  ["CC(=O)O[C@H]1C[C@H]2[C@@H]([C@H](OC(C)=O)C[C@@H]3CC4(CC[C@@]32C)OOC(C)(C)OO4)[C@@H]2CC[C@H]([C@H](C)CCC(=O)NCCN(C)C)[C@@]12C", 10.2]
]}
